# target_desc: GluN1/GluN2D NMDARs (Rattus norvegicus, UniProt P35439+Q62645)
# Sequence (Q62645 28-1323, other chains not shown): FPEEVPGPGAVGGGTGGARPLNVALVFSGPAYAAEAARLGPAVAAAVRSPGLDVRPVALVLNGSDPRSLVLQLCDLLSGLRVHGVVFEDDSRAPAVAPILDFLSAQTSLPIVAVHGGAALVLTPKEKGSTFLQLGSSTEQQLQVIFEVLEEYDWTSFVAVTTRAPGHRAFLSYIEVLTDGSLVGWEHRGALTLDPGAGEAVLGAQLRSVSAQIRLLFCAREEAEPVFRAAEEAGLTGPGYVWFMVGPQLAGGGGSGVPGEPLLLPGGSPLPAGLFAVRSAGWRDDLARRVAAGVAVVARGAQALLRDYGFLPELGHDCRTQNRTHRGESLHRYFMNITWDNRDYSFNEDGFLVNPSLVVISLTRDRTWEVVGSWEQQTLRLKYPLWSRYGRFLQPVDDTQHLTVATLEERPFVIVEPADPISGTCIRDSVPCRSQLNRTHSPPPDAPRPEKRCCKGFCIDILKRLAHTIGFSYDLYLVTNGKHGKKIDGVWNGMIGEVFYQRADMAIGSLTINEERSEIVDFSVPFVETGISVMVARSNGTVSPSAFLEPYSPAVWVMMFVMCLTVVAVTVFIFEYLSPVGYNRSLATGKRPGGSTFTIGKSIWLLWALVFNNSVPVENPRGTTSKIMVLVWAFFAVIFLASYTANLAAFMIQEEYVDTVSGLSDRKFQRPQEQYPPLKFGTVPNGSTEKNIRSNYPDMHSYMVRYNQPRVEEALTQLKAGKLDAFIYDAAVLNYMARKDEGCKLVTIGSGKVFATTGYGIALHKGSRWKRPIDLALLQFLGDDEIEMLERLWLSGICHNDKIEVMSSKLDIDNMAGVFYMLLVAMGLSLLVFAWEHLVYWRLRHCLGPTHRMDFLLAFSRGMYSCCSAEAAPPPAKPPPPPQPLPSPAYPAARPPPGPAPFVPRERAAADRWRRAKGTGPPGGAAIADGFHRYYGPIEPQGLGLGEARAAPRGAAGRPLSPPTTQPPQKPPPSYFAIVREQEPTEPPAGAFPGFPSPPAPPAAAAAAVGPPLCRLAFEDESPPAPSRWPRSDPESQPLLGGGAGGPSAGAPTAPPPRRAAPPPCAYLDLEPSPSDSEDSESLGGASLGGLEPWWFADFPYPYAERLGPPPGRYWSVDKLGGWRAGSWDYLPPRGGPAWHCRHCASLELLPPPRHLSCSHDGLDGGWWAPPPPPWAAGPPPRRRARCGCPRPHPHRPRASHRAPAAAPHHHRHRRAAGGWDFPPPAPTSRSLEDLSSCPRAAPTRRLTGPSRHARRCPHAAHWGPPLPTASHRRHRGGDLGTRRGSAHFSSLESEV
# protocol_description: Whole cell patch-clamp recordings, HEK293 cells expressing GluN1/GluN2D
# recorded_conditions: calculated from association and dissociation rates; HEK cells; read-out: kinetically-determined affinity constant Kd
readout_label: Kd (µM)
Please give a number only; it is taken to be in µM.

Observed Kd, GluN1/GluN2D NMDARs (Rattus norvegicus, UniProt P35439+Q62645), CC(C)(C)OC(=O)c1c(NC(=O)CC2SC(=N)NC2=O)sc2c1CCCC2 (stereo not shown) : 4.3

====

# target_desc: GluN1/GluN2A NMDARs (Rattus norvegicus, UniProt P35439+Q00959)
# Sequence (Q00959 23-1464, other chains not shown): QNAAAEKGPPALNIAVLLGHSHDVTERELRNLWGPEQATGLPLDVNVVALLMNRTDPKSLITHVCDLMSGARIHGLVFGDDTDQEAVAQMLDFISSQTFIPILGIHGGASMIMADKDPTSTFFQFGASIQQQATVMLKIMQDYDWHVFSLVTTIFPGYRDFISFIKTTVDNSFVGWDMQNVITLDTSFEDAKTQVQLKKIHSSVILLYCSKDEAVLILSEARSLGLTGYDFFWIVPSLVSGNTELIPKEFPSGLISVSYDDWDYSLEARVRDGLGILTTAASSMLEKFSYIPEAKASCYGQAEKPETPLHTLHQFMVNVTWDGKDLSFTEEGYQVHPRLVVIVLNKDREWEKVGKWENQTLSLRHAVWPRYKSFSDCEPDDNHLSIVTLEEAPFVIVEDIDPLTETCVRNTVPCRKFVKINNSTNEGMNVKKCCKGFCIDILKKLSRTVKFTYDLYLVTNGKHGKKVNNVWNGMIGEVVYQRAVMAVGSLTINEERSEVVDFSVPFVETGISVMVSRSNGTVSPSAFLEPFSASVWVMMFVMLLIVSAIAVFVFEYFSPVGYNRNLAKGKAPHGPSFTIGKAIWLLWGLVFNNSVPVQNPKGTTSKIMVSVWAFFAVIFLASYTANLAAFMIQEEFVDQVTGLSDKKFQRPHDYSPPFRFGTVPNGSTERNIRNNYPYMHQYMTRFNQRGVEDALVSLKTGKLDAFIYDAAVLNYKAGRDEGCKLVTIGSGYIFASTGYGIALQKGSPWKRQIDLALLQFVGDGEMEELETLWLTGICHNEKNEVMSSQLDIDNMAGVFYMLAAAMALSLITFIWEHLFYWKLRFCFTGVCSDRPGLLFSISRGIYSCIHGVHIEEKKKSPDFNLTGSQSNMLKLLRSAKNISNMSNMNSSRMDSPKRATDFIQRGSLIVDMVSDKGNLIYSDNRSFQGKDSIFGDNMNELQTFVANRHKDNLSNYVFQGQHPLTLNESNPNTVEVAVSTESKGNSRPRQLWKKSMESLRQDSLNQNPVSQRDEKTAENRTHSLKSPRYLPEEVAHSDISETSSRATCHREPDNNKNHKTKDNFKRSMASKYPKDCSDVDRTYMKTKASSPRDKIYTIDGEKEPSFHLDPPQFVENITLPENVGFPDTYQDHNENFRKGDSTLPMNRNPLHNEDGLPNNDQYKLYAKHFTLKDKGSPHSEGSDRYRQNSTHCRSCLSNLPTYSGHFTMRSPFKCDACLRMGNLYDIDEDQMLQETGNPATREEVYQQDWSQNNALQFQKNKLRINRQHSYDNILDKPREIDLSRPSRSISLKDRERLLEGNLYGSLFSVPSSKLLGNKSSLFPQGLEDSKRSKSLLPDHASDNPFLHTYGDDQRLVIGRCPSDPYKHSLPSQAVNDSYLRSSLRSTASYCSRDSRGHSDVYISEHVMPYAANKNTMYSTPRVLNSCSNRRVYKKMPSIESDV
# protocol_description: Two-electrode voltage-clamp recordings, Xenopus laevis oocytes expressing GluN1/GluN2A
# Format: cell-based
# recorded_conditions: sub-saturating glutamate/glycine 0.6/0.2 µM; read-out: EC50 (µM) [conf. int.]
readout_label: EC50 (µM)
Please give a number only; it is taken to be in µM.

# EC50 (compound: CCOC(=O)c1c(NC(=O)CC2SC(=N)NC2=O)sc2c1CCC(C)C2 (stereo not shown) [EU1794-2] ) is 1.8
